Reference source for all entries: BindingDB's records for doi:10.1021/jm00061a004

measurement target: CYP2D6 (Homo sapiens, UniProt P10635)
Sequence (P10635 whole entry): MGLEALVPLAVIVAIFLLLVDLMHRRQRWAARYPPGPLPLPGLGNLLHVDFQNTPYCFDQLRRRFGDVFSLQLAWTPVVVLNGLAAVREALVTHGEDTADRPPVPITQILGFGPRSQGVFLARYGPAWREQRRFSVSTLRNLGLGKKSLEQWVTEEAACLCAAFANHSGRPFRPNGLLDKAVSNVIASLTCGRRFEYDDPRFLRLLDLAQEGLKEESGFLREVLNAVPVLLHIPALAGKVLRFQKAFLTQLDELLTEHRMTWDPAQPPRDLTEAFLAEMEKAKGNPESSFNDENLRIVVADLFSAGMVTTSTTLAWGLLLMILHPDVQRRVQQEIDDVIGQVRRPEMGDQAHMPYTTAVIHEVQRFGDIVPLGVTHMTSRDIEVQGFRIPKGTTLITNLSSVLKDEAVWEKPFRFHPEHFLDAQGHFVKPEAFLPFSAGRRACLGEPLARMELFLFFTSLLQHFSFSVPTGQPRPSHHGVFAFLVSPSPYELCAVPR
assay name: Apparent inhibitory constant (Ki) for Bufuralol 1'-hydroxylation by human liver microsomes
experimental parameters: probe bufuralol (1'-hydroxylation)
property label: pKi
# pKi is unitless: minus log10 of the molar concentration; print number only

[Q] Fill blank: measured pKi of the compound COC(=O)C1=CO[C@@H](C)[C@H]2CN3CCc4c([nH]c5ccccc45)[C@@H]3C[C@H]12 is ____.
[A] 8.34
